# Assay Protocol: qHTS for characterization and localization of zebrafish homologs of the human ABCB1 multidrug transporter: empty vector transfected cells
# Experimental Context: empty vector transfected control cells, CellTiter-Glo luminescence viability, 72 h; series mostly up to 46.1 µM
Results filed as inconclusive are left out. Active and inactive are the calls of the source. Calls come from the whole dose curve; as a rule, active = well fitted inhibition curve with a large enough effect; inconclusive = small, poorly fitted or top-dose-only effect; inactive = flat fitted curve, though single readings scatter.
Result category, one only: label 1 for active, label 0 for inactive

{"Compound": "COc1cccc2c1C(=O)c1c(O)c3c(c(O)c1C2=O)C[C@@](O)(C(=O)CO)C[C@H]3O[C@H]1C[C@H](N)[C@@H](O)[C@H](C)O1", "Class Name": "label 1"}
{"Compound": "CCC(C)C(=O)OC1CC(O)C23C4OCC5(C(O)CC2C1(C)C(O)O4)C3C(=O)C(O)C1(C)C(O)(c2ccoc2)CC2OC251 (stereo not drawn)", "Class Name": "label 1"}

Below: the item to evaluate.
Prompt: Called result for `CCN(CC)Cc1ccc(C(=O)N(CCc2ccccc2OC)[C@@H]2CCNC2)cc1`
Response: label 0
